# assay.target: Fibroblast growth factor 2 (Homo sapiens) (UniProt P09038)
# Sequence (P09038 whole entry, looked up): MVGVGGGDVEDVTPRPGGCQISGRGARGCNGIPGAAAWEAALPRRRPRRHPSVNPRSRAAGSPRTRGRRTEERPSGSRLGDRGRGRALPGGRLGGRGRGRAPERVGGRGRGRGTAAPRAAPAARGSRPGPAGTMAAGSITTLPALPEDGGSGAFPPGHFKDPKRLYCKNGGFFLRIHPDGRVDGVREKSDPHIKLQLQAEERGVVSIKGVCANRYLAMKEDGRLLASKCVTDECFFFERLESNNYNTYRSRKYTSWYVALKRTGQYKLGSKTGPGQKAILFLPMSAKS
# test.details: FGF2 binders on small-molecule microarrays, primary screen, biochemical, small-molecule microarray, 635/667 nm fluorescence (AID 1133)
# protocol.conditions: small-molecule microarray binding, FGF2, fluorescence 635/667; higher = more signal
# binarize composite z-score: threshold -0.2 inclusive, high side condition met, low side condition not met

{"compound": "CC(C)C(=C=CC[C@@H](O)c1cccc(OCCO)c1)C[C@@H](O)COCc1ccccc1", "class.assignment": "condition met"}

Turning now to a further record.
Input: Can `COCCOC(=O)N1C(=O)[C@@]2(c3ccccc31)[C@H](c1ccccc1OCCO)N1[C@H](c3ccccc3)[C@H](c3ccccc3)OC(=O)[C@H]1[C@@H]2C(N)=O` be said to have composite z-score at or above -0.2?
Output: condition met

Reference source for all entries: PubChem BioAssay
